target: T1, PD-L1-HIS recombinant protein (human, UniProt Q9NZQ7 19-238, limits assumed); assay: SPR (Biacore 8K), antibody captured on chip, PD-L1-HIS analyte 2.5-80 nM, 1:1 binding model
T1 construct: not shown: His tag
T1 sequence (Q9NZQ7 19-238 limits assumed): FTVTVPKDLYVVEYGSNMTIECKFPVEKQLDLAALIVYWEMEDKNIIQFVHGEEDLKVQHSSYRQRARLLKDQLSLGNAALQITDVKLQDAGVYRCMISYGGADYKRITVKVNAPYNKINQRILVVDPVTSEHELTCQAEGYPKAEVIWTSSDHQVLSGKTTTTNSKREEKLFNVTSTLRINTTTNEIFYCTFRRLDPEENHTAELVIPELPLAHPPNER
Task for the reader: assign each of the following binders its reported Kd.
Give your result in nM as a bare value.

## Input Fill in: Kd of AH01964 (antibody, human IgG1, V domains shown, also called mPD-L1Ab-CBM clone AH01964) VH: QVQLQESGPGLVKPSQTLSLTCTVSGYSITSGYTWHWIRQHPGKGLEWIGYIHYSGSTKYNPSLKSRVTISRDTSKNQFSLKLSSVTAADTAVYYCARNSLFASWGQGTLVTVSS VL: DIVMTQSPDSLAVSLGERATINCRASESVDTYGDSFMHWYQQKPGQPPKLLIYRASNLESGVPDRFSGSGSGTDFTLTISSLQAEDVAVYYCQQSNEAPYTFGGGTKL is ___
## Output 1.76

## Input Fill in: Kd of AH01963 (antibody, human IgG1, V domains shown, also called mPD-L1Ab-CBM clone AH01963) VH: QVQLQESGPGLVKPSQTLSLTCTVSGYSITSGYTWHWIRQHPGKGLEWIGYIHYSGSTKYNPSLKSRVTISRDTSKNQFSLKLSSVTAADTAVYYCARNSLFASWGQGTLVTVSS VL: DIVLTQSPDSLAVSLGERATINCRASESVDTYGDSFMHWYQQKPGQPPKLLIYRASNLESGVPDRFSGSGSGTDFTLTISSVQAEDVAVYYCQQSNEAPYTFGGGTKLEIK is ___
## Output 1.27

## Input Fill in: Kd of AH01946 (antibody, human IgG1, V domains shown, also called mPD-L1Ab-CBM clone AH01946) VH: QVQLQESGPGLVKPSQTLSLTCTVSGYSITSGYTWHWIRQHPGKGLEWIGYIHYSGSTKYNPSLKSRVTISRDTSKNQFSLKLSSMTAADTAVYYCARNSLFASWGQGTLVTVSS VL: DIVLTQSPDSLAVSLGERATINCRASESVDTYGDSFMHWFQQKPGQPPKLLIYRASNLESGVPDRFSGSGSGTDFTLTISSVQAEDVAVYYCQQSNEAPYTFGGGTKLEIK is ___
## Output 0.835
